The origin of these recorded values is patent US20040110802A1.

tested on: SAUR 9218; assay: MIC Test Method, standard agar dilution; type: cell-based; settings: agar dilution, Mueller Hinton agar, incubated overnight at 35° C.; lowest concentration that inhibits visible growth; read-out: SAUR 9218 MIC
measured-property: MIC

O=C(Nc1ccc(Cl)cc1C(=O)O)c1cc(-c2ccccc2NS(=O)(=O)c2ccc(OC(F)(F)F)cc2)on1 :: 8 µg/mL
COc1ccccc1-c1cccc2cc(C(=O)Nc3ccc(C#N)cc3C(=O)O)n(C)c12 :: 0.25 µg/mL
Cn1c(C(=O)Nc2ccc(C#N)cc2C(=O)O)cc2ccccc21 :: 0.25 µg/mL
CC(Sc1ccc(C(=O)Nc2ccc(C#N)cc2C(=O)O)cn1)c1ccccc1 (centres unmarked) :: 0.25 µg/mL
Cc1ccccc1-c1cnc(C(=O)Nc2ccc(C#N)cc2C(=O)O)cn1 :: 32 µg/mL
CN(c1ccc(Cl)cc1)S(=O)(=O)c1cc(C(=O)Nc2ccc(Br)cc2C(=O)O)c[n+]([O-])c1 :: 8 µg/mL
Cn1c(C(=O)Nc2ccc(C#N)cc2C(=O)O)cc2cccc(OC[C@H](O)CO)c21 :: 0.5 µg/mL
COc1ccc(-c2cc(C(=O)Nc3ccc(C#N)cc3C(=O)O)no2)cc1 :: 0.5 µg/mL

Measured MIC, O=C(O)c1cc(Br)ccc1NC(=O)c1cc(-c2ccccc2)nc2ccccc12 : 64 µg/mL

Looking up O=C(O)c1cc(Br)ccc1NC(=O)c1ncccc1C(=O)c1ccccc1 , I see its MIC listed as > 128 µg/mL

* * *

# maps each entry to its MIC
test system: SAUR 9218; assay: MIC Test Method, standard agar dilution; assay type: cell-based; conditions: agar dilution, Mueller Hinton agar, incubated overnight at 35° C.; lowest concentration that inhibits visible growth; read-out: SAUR 9218 MIC
Kindly provide the numeric value in µg/mL only, without the unit symbol.

CCCn1c(C(=O)Nc2ccc(Br)cc2C(=O)O)cc2ccccc21 :: 4
N#Cc1ccc(NC(=O)c2cncc(Br)c2)c(C(=O)O)c1 :: 8
Cn1c(C(=O)Nc2ccc(C#N)cc2C(=O)O)cc2ccc(-c3ccccc3C(F)(F)F)cc21 :: 0.125
N#Cc1ccc(NC(=O)c2noc3ccc(S(=O)(=O)N4CCOCC4)cc23)c(C(=O)O)c1 :: 0.5

The compound listed as Cn1c(C(=O)Nc2ccc(C#N)cc2C(=O)O)cc2cccc(-c3ccccc3C(F)(F)F)c21 shows MIC equal to 0.06

* * *

test system: SAUR 9218; experiment: MIC Test Method, standard agar dilution; type: cell-based; conditions: agar dilution, Mueller Hinton agar, incubated overnight at 35° C.; lowest concentration that inhibits visible growth; read-out: SAUR 9218 MIC
Measured log10 MIC values are reported for all entries that follow.
Give log10 of MIC, with MIC taken in µg/mL.

Solved cases (8 shown):
N#Cc1ccc(NC(=O)c2cc3cccc(NC(=O)c4ccccc4-c4ccccc4)c3[nH]2)c(C(=O)O)c1 :: 0.00
Cn1c(C(=O)Nc2ccc(C#N)cc2C(=O)O)cc2cccc(N(S(C)(=O)=O)S(C)(=O)=O)c21 :: -0.90
N#Cc1ccc(NC(=O)c2cccc3c2CCN(Cc2ccccc2)S3(=O)=O)c(C(=O)O)c1 :: 0.90
Cc1coc2cnc(C(=O)Nc3ccc(C#N)cc3C(=O)O)cc12 :: 1.20
O=C(Nc1ccc(Br)cc1C(=O)O)c1ccnc(SCc2ccccc2)c1 :: 0.30
CN(c1ccc(Cl)cc1)S(=O)(=O)c1csc(C(=O)Nc2ccc(Br)cc2C(=O)O)c1 :: 0.90
C=CCN(C1CCCC1)S(=O)(=O)c1cc(C(=O)Nc2ccc(C#N)cc2C(=O)O)sc1C :: 0.90
Cn1c(C(=O)Nc2ccc(C#N)cc2C(=O)O)cc2cccc(OCC3CC3)c21 :: -0.90

Now look at this entry.
Measured log10 MIC of O=C(Nc1ccc(Cl)cc1C(=O)O)c1cc(CCCc2ccccc2)on1 : -0.30
